Target: FXR ligand binding domain (Homo sapiens)
Sequence (Q96RI1 187-472 isoform Q96RI1-2): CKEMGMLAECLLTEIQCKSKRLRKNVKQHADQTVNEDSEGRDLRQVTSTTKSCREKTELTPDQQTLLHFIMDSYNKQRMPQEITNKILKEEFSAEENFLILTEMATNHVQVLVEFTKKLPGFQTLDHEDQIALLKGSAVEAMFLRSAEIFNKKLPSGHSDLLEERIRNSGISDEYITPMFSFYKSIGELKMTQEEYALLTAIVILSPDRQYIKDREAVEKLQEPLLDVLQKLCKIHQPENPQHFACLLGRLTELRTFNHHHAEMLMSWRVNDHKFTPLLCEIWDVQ
Experiment: Mammalian One Hybrid (M1H) Gal4 reporter assay in HEK293 cells
Settings: potency range
Reported values of EC50 for individual entries

Observe how each entry below is paired with its result.
{"columns": ["MOLECULE", "TARGET ENTITY", "EC50"],
 "data": [
  ["O=C(O)CNC(=O)c1ccc(C2CC2c2ccc(OCc3c(-c4c(Cl)cccc4Cl)noc3C3CC3)cc2Cl)cc1 (stereo not shown) [Example 28]", "FXR ligand binding domain (Homo sapiens)", "> 100 nM"],
  ["Clc1cc(OCc2c(-c3c(Cl)cccc3Cl)noc2C2CC2)ccc1C1CC1c1ccc(-c2nnn[nH]2)nc1 (stereo not shown) [Example 7]", "FXR ligand binding domain (Homo sapiens)", "10 to 100 nM"],
  ["O=C(O)c1cccc(C2CC2c2ccc(OCc3c(-c4c(Cl)cncc4Cl)noc3C3CC3)cc2Cl)c1 (stereo not shown) [Example 1]", "FXR ligand binding domain (Homo sapiens)", "10 to 100 nM"],
  ["CC(C)(O)c1onc(-c2c(Cl)cccc2Cl)c1COc1ccc(C2CC2c2ccc(C(=O)O)cc2)c(Cl)c1 (stereo not shown) [Example 17]", "FXR ligand binding domain (Homo sapiens)", "> 100 nM"]
]}

Q: Item Cn1nc(C(=O)O)c2ccc(C3CC3c3ccc(OCc4c(-c5c(Cl)cccc5Cl)noc4C4CC4)cc3Cl)cc21 (single isomer, unassigned; (-)) [Example 13b] with FXR ligand binding domain (Homo sapiens) - EC50?
Result: < 10 nM

Q: Item CC(C)n1nc(C(=O)O)c2ccc(C3CC3c3ccc(OCc4c(-c5c(Cl)cccc5Cl)noc4C4CC4)cc3Cl)cc21 (stereo not shown) [Example 21] with FXR ligand binding domain (Homo sapiens) - EC50?
Result: < 10 nM

Q: Item CC(C)c1nnn(-c2c(Cl)cccc2Cl)c1COc1ccc(C2CC2c2cccc(C(=O)O)c2)c(Cl)c1 (stereo not shown) [Example 3] with FXR ligand binding domain (Homo sapiens) - EC50?
Result: 10 to 100 nM

Q: Item O=C(O)c1cccc(C2CC2c2ccc(OCc3c(-c4c(Cl)cccc4Cl)noc3C3CC3)cc2Cl)c1 (single isomer, unassigned; (-)) [Example 5a] with FXR ligand binding domain (Homo sapiens) - EC50?
Result: 10 to 100 nM

Q: Item O=C(O)c1ccc(C2CC2c2ccc(OCc3c(-c4c(Cl)cccc4Cl)noc3C3CC3)cc2Cl)cc1 (single isomer, unassigned; (-)) [Example 12c] with FXR ligand binding domain (Homo sapiens) - EC50?
Result: 10 to 100 nM

Q: Item CC(C)n1nc(C(=O)O)cc1C1CC1c1ccc(OCc2c(-c3c(Cl)cccc3Cl)noc2C2CC2)cc1Cl (stereo not shown) [Example 20] with FXR ligand binding domain (Homo sapiens) - EC50?
Result: < 10 nM

Q: Item Cn1nc(C(=O)O)c2ccc(C3CC3c3ccc(OCc4c(-c5c(Cl)cccc5Cl)noc4C4CC4)cc3Cl)cc21 (single isomer, unassigned; (+)) [Example 13a] with FXR ligand binding domain (Homo sapiens) - EC50?
Result: 10 to 100 nM

Q: Item O=C(O)c1ccc(C2CC2c2ccc(OCc3c(-c4ccccc4OC(F)(F)F)noc3C3CC3)cc2Cl)cc1 (stereo not shown) [Example 24] with FXR ligand binding domain (Homo sapiens) - EC50?
Result: > 100 nM

Q: Item O=C(O)c1ccc(C2CC2c2ccc(OCc3c(-c4c(Cl)cccc4Cl)noc3C3CC3)cc2Cl)cc1 (racemic) [Example 12] with FXR ligand binding domain (Homo sapiens) - EC50?
Result: 10 to 100 nM
